TESTED_SYSTEM: BRAF G469A (Homo sapiens, UniProt P15056, G469A)
Construct: Horizon Discovery (HCT-116 BRAF−/− cells); host or cells: HCT-116 BRAF−/− cells, clone 34, lentiviral transduction
Sequence (P15056 whole entry G469A): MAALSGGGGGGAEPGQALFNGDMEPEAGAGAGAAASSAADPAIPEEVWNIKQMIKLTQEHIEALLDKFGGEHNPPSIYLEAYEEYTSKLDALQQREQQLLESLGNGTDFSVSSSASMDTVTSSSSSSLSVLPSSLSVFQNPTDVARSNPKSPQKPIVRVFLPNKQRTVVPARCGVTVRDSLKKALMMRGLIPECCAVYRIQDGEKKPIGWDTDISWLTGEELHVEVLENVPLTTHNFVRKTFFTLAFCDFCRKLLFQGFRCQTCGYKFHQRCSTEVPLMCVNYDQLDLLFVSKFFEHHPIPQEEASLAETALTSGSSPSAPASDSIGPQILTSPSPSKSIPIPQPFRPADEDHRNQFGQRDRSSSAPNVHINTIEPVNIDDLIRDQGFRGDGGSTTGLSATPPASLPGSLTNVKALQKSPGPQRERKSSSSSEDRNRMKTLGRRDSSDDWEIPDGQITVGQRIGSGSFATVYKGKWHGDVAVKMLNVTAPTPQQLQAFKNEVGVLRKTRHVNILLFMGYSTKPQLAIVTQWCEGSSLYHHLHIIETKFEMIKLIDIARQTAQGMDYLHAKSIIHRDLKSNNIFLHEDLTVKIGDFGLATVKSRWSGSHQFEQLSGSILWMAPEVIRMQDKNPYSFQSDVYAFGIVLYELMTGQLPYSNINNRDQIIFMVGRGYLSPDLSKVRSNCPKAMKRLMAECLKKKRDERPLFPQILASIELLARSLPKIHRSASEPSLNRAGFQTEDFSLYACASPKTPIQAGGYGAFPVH
ASSAY_DETAILS: BRAF HiBiT degradation assay, C-terminal HiBiT-tagged BRAF G469A overexpressed in HCT-116 BRAF−/− cells (clone 34), Nano-Glo HiBiT Lytic assay
Assay type: cell-based
CONDITIONS: BRAF G469A (Class 2), HCT-116 BRAF−/− cells; DC50 at 50% degradation
Catalogue of DC50 readings, one per entry.

The cases that follow already have their DC50 on record.
{"columns": ["COMPOUND", "MEASURED_VALUE"],
 "data": [
  ["C[C@@H]1CN(c2ccc(-n3cc(-c4cc(Cl)cc(NS(=O)(=O)N5CC[C@@H](F)C5)c4F)c(-c4ccncc4)n3)cc2)CCN1CC1CCN(c2ccc(N3CCC(=O)NC3=O)cc2)CC1", "10 to 50 nM"],
  ["O=C1CCC(c2ccc(N3CCC(CN4CCN(c5ccc(-n6cc(-c7cc(Cl)cc(NS(=O)(=O)N8CC(F)C8)c7F)c(-c7ccncc7)n6)cc5)CC4)CC3)nc2)C(=O)N1 (racemic)", "< 10 nM"]
]}

Given the entry CCCS(=O)(=O)Nc1cccc(-c2nc(C3CCN(C(=O)C4CCN(C(=O)C5CCN(c6ccc(C7CCC(=O)NC7=O)cn6)CC5)CC4)CC3)sc2-c2ccnc(N)n2)c1F (racemic) , report its measured DC50.
10 to 50 nM

Given the entry CCN(C)S(=O)(=O)Nc1cc(F)cc(-c2cn(-c3ccc(N4CCN(CC5CCN(c6ccc([C@H]7CCC(=O)NC7=O)cn6)CC5)CC4)cc3)nc2-c2ccncc2)c1F , report its measured DC50.
10 to 50 nM

Given the entry O=C1CC[C@H](c2ccc(N3CCC(CN4CCN(c5ccc(-n6cc(-c7cc(Cl)cc(NS(=O)(=O)N8CCCC8)c7F)c(-c7ccncc7)n6)cn5)CC4)CC3)cc2)C(=O)N1 , report its measured DC50.
10 to 50 nM

----------
TESTED_SYSTEM: BRAF G469A (Homo sapiens, UniProt P15056, G469A)
Construct: Horizon Discovery (HCT-116 BRAF−/− cells); host or cells: HCT-116 BRAF−/− cells, clone 34, lentiviral transduction
ASSAY_DETAILS: BRAF HiBiT degradation assay, C-terminal HiBiT-tagged BRAF G469A overexpressed in HCT-116 BRAF−/− cells (clone 34), Nano-Glo HiBiT Lytic assay
Format: cell-based
CONDITIONS: BRAF G469A (Class 2), HCT-116 BRAF−/− cells; observed Dmax relative to DMSO control
PROPERTY_MEASURED: Dmax

The cases that follow already have their Dmax on record.
{"columns": ["MOLECULE", "Dmax"],
 "data": [
  ["O=C1CCC(N2C(=O)c3ccc(N4CC(CN5CC(c6ccc(-n7cc(-c8ccc9c(c8)CC/C9=N/O)c(-c8ccncc8)n7)cc6)C5)C4)cc3C2=O)C(=O)N1 (racemic) [Compound 262]", "< 30%"],
  ["C[C@@H]1CN(c2ccc(-n3cc(-c4cc(F)cc(NS(=O)(=O)N5CCCC5)c4F)c(-c4ccncc4)n3)c(F)c2)CCN1CC1CCN(c2ccc(C3CCC(=O)NC3=O)cn2)CC1 (mixture of isomers) [Compound 289]", "> 70%"],
  ["C[C@@H]1CN(c2ccc(-n3cc(-c4cc(Cl)cc(NS(=O)(=O)N5CC[C@@H](F)C5)c4F)c(-c4ccncc4)n3)cc2)CCN1CC1CCN(c2ccc(C3CCC(=O)NC3=O)cn2)CC1 (mixture of isomers) [Compound 318]", "> 70%"],
  ["O=C1CCC(c2ccc(N3CCC(CN4CCN(c5ccc(-n6cc(-c7cc(Cl)cc(NS(=O)(=O)N8CCCC8)c7F)c(-c7ccncc7)n6)cc5F)CC4)CC3)nc2)C(=O)N1 (racemic) [Compound 363]", "> 70%"],
  ["O=C1CC[C@H](c2ccc(N3CCC(CN4CCN(c5ccc(-n6cc(-c7cc(Cl)cc(NS(=O)(=O)N8CCCC8)c7F)c(-c7ccncc7)n6)cc5)CC4)CC3)cc2F)C(=O)N1 [Compound 344]", "> 70%"]
]}

Given the entry CCCS(=O)(=O)Nc1cccc(-c2nc(C3CCC4(CC3)CCN(C(=O)C3CCN(c5cccc6c5n(C)c(=O)n6C5CCC(=O)NC5=O)CC3)CC4)sc2-c2ccnc(N)n2)c1F (racemic) [Compound 251] , report its measured Dmax.
30 to 70%

Given the entry O=C1CC[C@H](c2ccc(N3CCC(CN4CCN(c5ccc(-n6cc(-c7cc(Cl)cc(NS(=O)(=O)C8CCCC8)c7F)c(-c7ccncc7)n6)cc5)CC4)CC3)cc2)C(=O)N1 [Compound 374] , report its measured Dmax.
30 to 70%

Given the entry O=C1CC[C@H](c2ccc(N3CCC(CN4CCN(c5ccc(-n6cc(-c7cc(Cl)cc(NS(=O)(=O)N8CC[C@@H](F)C8)c7F)c(-c7ccncc7)n6)c(F)c5)CC4)CC3)cc2)C(=O)N1 [Compound 336] , report its measured Dmax.
> 70%

Given the entry CCC(C)S(=O)(=O)Nc1cc(Cl)cc(-c2cn(-c3ccc(N4CCN(CC5CCN(c6ccc([C@H]7CCC(=O)NC7=O)cc6)CC5)CC4)cc3)nc2-c2ccncc2)c1F (mixture of isomers) [Compound 330] , report its measured Dmax.
30 to 70%

----------
Catalogue of DC50 readings, one per entry.
TESTED_SYSTEM: BRAF V600E (Homo sapiens, UniProt P15056, V600E)
Construct: endogenous C-terminal HiBiT fusion tag on BRAF V600E allele; endogenous in cells; host or cells: A375 clone 1F10 (CRISPR-Cas9 knock-in of the HiBiT tag; parental A375 from ATCC)
Sequence (P15056 whole entry V600E, the tested form may be a part): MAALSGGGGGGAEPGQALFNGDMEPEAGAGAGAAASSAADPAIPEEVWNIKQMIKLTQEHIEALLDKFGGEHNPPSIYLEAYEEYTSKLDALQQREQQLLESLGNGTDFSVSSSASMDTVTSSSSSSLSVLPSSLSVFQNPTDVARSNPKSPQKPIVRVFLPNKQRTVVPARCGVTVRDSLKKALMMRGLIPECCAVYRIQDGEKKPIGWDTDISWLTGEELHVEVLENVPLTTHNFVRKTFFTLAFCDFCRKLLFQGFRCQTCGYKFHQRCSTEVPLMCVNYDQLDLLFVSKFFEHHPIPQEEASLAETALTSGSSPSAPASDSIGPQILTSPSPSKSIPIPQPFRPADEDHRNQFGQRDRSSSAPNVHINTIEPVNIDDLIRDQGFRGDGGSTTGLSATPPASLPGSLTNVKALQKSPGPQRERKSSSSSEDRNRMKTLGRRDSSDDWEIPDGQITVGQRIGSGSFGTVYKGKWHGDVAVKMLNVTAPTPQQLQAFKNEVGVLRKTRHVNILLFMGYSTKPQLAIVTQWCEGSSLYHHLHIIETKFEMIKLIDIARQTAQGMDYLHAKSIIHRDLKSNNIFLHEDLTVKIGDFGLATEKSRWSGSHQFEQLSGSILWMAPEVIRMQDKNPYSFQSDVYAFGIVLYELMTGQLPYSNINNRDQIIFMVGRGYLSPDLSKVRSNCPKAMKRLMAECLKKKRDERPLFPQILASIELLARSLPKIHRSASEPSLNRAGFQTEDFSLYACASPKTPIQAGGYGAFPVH
ASSAY_DETAILS: BRAF HiBiT degradation assay, C-terminal HiBiT-tagged BRAF V600E A375 cells (clone 1F10), Nano-Glo HiBiT Lytic assay
Type: cell-based
CONDITIONS: A375 (BRAF V600E, Class 1); DC50 at 50% degradation

Given the entry CCN(C)S(=O)(=O)Nc1cc(Cl)cc(-c2cn(-c3ccc(N4CCN(CC5CCN(c6ccc(N7CCC(=O)NC7=O)cc6)CC5)CC4)cn3)nc2-c2ccncc2)c1F , report its measured DC50.
10 to 50 nM

Given the entry O=C1CCC(c2cc(F)c(N3CCC(CN4CCN(c5ccc(-n6cc(-c7cc(Cl)cc(NS(=O)(=O)N8CCCC8)c7F)c(-c7ccncc7)n6)cc5)CC4)CC3)cc2F)C(=O)N1 (racemic) , report its measured DC50.
10 to 50 nM

Given the entry O=C1CCN(c2ccc(N3CCC(CN4CCN(c5ccc(-n6cc(-c7cc(Cl)cc(NS(=O)(=O)N8CC[C@@H](F)C8)c7F)c(-c7ccncc7)n6)cc5F)CC4)CC3)cc2)C(=O)N1 , report its measured DC50.
< 10 nM

Given the entry C[C@@H]1CN(c2ccc(-n3cc(-c4cc(Cl)cc(NS(=O)(=O)N5CCCC5)c4F)c(-c4ccncc4)n3)cc2)CCN1CC1CCN(c2ccc(N3CCC(=O)NC3=O)cc2)CC1 , report its measured DC50.
< 10 nM

Given the entry CCC(C)S(=O)(=O)Nc1cc(Cl)cc(-c2cn(-c3ccc(N4CCN(CC5CCN(c6ccc([C@@H]7CCC(=O)NC7=O)cn6)CC5)CC4)cc3)nc2-c2ccncc2)c1F (mixture of isomers) , report its measured DC50.
< 10 nM

----------
TESTED_SYSTEM: BRAF G469A (Homo sapiens, UniProt P15056, G469A)
Construct: Horizon Discovery (HCT-116 BRAF−/− cells); host or cells: HCT-116 BRAF−/− cells, clone 34, lentiviral transduction
ASSAY_DETAILS: BRAF HiBiT degradation assay, C-terminal HiBiT-tagged BRAF G469A overexpressed in HCT-116 BRAF−/− cells (clone 34), Nano-Glo HiBiT Lytic assay
Assay type: cell-based
CONDITIONS: HCT-116; Class 2; BRAF G469A; percentage protein degraded at maximal compound effect relative to DMSO
Catalogue of Dmax readings, one per entry.

{"columns": ["COMPOUND", "Dmax"],
 "data": [
  ["CCCS(=O)(=O)Nc1cccc(-c2nc(C3CCN(C(=O)C4(C)CCN(C(=O)C5CCN(c6ccc(C7CCC(=O)NC7=O)cn6)CC5)CC4)CC3)sc2-c2ccncn2)c1F (racemic) [Compound 181]", "30 to 70%"]
]}

Please state recorded Dmax (tested on BRAF G469A (Homo sapiens, UniProt P15056, G469A)) of CCN(C)S(=O)(=O)Nc1cccc(-c2nc(C)sc2-c2ccnc(Nc3ccc(N4CCN(CC5CCN(c6ccc([C@H]7CCC(=O)NC7=O)cn6)CC5)CC4)cn3)n2)c1F [Compound 27]
30 to 70%

Please state recorded Dmax (tested on BRAF G469A (Homo sapiens, UniProt P15056, G469A)) of CCN(C)S(=O)(=O)Nc1cccc(-c2nc(C(C)(C)C)sc2-c2ccnc(Nc3ccc(N4CCN(CC5CC6(C5)CN(c5ccc(C7CCC(=O)NC7=O)cn5)C6)CC4)cn3)n2)c1F (racemic) [Compound 30]
30 to 70%

Please state recorded Dmax (tested on BRAF G469A (Homo sapiens, UniProt P15056, G469A)) of CCCS(=O)(=O)Nc1cccc(-c2nc(C(C)(C)C)sc2-c2ccnc(Nc3cnn(C4CCN(C(=O)CN5CCC(c6ccc(NC7CCC(=O)NC7=O)cc6)CC5)CC4)c3)n2)c1F (racemic) [Compound 108]
< 30%

Please state recorded Dmax (tested on BRAF G469A (Homo sapiens, UniProt P15056, G469A)) of CCCS(=O)(=O)Nc1cccc(-c2nc(C)sc2-c2ccnc(Nc3ccc(N4CCN(CC5CCN(c6ccc([C@@H]7CCC(=O)NC7=O)cc6)CC5)CC4)cn3)n2)c1F [Compound 61]
30 to 70%

Please state recorded Dmax (tested on BRAF G469A (Homo sapiens, UniProt P15056, G469A)) of CCCS(=O)(=O)Nc1cccc(-c2nc(C(C)(C)C)sc2-c2ccnc(NCC3CCN(CC4CCN(c5ccc(C(=O)N[C@H]6CCC(=O)NC6=O)nc5)CC4)CC3)n2)c1F [Compound 147]
< 30%

Please state recorded Dmax (tested on BRAF G469A (Homo sapiens, UniProt P15056, G469A)) of CCCS(=O)(=O)Nc1cccc(-c2nc(C(C)(C)C)sc2-c2ccnc(Nc3cccc(OC4CCN(C[C@H]5CC[C@H](Oc6ccc(C7CCC(=O)NC7=O)cc6)CC5)CC4)c3)n2)c1F (mixture of isomers) [Compound 72]
< 30%

Please state recorded Dmax (tested on BRAF G469A (Homo sapiens, UniProt P15056, G469A)) of CCCS(=O)(=O)Nc1cccc(-c2nc(C3(C)CCN(C(=O)C4CCN(CC5CCN(c6ccc(C7CCC(=O)NC7=O)cc6)CC5)CC4)CC3)sc2-c2ccnc(N)n2)c1F (racemic) [Compound 227]
30 to 70%
